molecular target: HDAC1 (Homo sapiens, UniProt Q13547); experiment: HDAC1 recombinant enzymatic assay; conditions: 5 h pre-incubation, 5 nM enzyme; read-out: HDAC recombinant enzymatic IC50 HDAC1
Sequence (Q13547 whole entry): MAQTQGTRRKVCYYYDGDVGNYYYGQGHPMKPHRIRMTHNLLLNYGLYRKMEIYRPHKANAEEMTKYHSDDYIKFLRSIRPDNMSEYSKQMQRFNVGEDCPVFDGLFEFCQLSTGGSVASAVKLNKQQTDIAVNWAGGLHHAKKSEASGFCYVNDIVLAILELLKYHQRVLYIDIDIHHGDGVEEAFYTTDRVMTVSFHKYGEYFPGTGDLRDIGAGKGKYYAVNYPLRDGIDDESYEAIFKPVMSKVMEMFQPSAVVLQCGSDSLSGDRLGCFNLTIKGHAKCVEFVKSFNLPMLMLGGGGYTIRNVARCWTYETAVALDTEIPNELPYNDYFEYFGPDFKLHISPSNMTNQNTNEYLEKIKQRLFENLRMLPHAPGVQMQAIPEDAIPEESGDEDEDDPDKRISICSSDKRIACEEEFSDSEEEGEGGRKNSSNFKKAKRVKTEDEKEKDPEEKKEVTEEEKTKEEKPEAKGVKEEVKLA
endpointLabel: IC50 (nM)
Only the number, expressed in nM, is required.

Would you please look over these solved cases?
molecule	IC50 / nM
Nc1ccc(-c2ccc(F)cc2)nc1NC(=O)N1Cc2cccnc2C1 [Comparator F]	79
Nc1ccc(-c2ccc(F)cc2)nc1NC(=O)N1Cc2nccnc2C1 [Comparator B]	119

# lookup: IC50 of Nc1ccc(-c2ccc(F)cc2)nc1NC(=O)N1Cc2cncnc2C1 [Comparator D]
239

# lookup: IC50 of COCc1cc2c(cn1)CN(C(=O)Nc1nc(-c3ccc(F)cc3F)ccc1N)C2 [Compound 1]
326

# lookup: IC50 of Nc1ccc(-c2cccs2)nc1NC(=O)N1Cc2cncnc2C1 [Comparator E]
142

###

assay: Brain and plasma exposure following IV and PO administration to mice; format: in vivo; conditions: plasma, 10 mpk; mouse, PO; read-out: PK T ½ PO (converted)
endpointLabel: half-life

# lookup: half-life of COCc1cc2c(cn1)CN(C(=O)Nc1nc(-c3ccc(F)cc3F)ccc1N)C2
1.97 h

###

test: Brain and plasma exposure following IV and PO administration to mice; format: in vivo; conditions: plasma, 1 mg/kg; mouse, IV 1 mpk; read-out: Mouse IV (1 mpk): Cl (converted)
endpointLabel: clearance (mL/min/kg)
Only the number, expressed in mL/min/kg, is required.

# lookup: clearance of Cc1ncc2c(n1)CN(C(=O)Nc1nc(-c3cccs3)ccc1N)C2
69.7

###

Item-by-item account of pIC50
molecular target: HDAC1 (Homo sapiens, UniProt Q13547); experiment: HDAC1 recombinant enzymatic assay; details: 5 h pre-incubation, 5 nM enzyme; read-out: HDAC recombinant enzymatic IC50 HDAC1
# pIC50: negative log10 of molar concentration; output just the value

Would you please look over these solved cases?
compound	targetDesc	pIC50
Nc1ccc(-c2ccc(F)cc2)cc1NC(=O)N1Cc2nccnc2C1 [Comparator A]	HDAC1 (Homo sapiens, UniProt Q13547)	7.57
Nc1ccc(-c2ccc(F)cc2)nc1NC(=O)N1Cc2ccncc2C1 [Comparator G]	HDAC1 (Homo sapiens, UniProt Q13547)	6.84
Cc1ncc2c(n1)CN(C(=O)Nc1nc(-c3cccs3)ccc1N)C2 [Compound 2]	HDAC1 (Homo sapiens, UniProt Q13547)	6.88
Nc1ccc(-c2cccs2)nc1NC(=O)N1Cc2nccnc2C1 [Comparator C]	HDAC1 (Homo sapiens, UniProt Q13547)	7.02

# lookup: pIC50 of Cc1cc2c(cn1)CN(C(=O)Nc1nc(-c3ccc(F)cc3)ccc1N)C2 [Comparator H]
7.05

###

test: Brain and plasma exposure following IV and PO administration to mice; format: in vivo; conditions: plasma, 1 mg/kg; mouse, IV; read-out: IV PK T ½ (converted)
endpointLabel: half-life (h)
Only the number, expressed in h, is required.

# lookup: half-life of COCc1cc2c(cn1)CN(C(=O)Nc1nc(-c3ccc(F)cc3F)ccc1N)C2 [Compound 1]
2.13

###

target: HDAC2 (Homo sapiens, UniProt Q92769); test: HDAC2 enzymatic inhibition assay in SY5Y cell lysate with HDAC-Glo2 substrate; type: cell-based; parameters: host or cells: SH-SY5Y; conditions: SH-SY5Y cells, 5 h compound incubation, HDAC-Glo 2 reagent
Sequence (Q92769 whole entry): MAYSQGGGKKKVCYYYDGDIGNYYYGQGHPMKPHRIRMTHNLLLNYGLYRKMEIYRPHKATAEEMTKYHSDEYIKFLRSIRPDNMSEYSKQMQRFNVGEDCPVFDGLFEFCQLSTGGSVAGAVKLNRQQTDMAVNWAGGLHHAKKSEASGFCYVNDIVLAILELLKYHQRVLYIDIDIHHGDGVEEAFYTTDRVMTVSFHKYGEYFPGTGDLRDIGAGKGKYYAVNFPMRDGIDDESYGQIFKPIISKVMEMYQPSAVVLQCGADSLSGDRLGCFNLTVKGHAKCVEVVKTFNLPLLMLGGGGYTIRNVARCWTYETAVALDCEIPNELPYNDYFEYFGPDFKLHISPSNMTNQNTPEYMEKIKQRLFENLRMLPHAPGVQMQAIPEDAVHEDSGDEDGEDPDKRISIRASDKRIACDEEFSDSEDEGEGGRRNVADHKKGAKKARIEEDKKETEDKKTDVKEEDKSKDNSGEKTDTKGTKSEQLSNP
Threshold 600 nM. IC50 below it: 1. IC50 at it or above: 0.

compoundString	targetDesc	category
Nc1ccc(-c2ccc(F)cc2)nc1NC(=O)N1Cc2ccncc2C1	HDAC2 (Homo sapiens, UniProt Q92769)	0

Hi there! Is IC50 for Nc1ccc(-c2cccs2)nc1NC(=O)N1Cc2cncnc2C1 below 600 nM, do you know?
1

Hi there! Is IC50 for Nc1ccc(-c2cccs2)nc1NC(=O)N1Cc2nccnc2C1 below 600 nM, do you know?
1

Hi there! Is IC50 for Cc1cc2c(cn1)CN(C(=O)Nc1nc(-c3ccc(F)cc3)ccc1N)C2 below 600 nM, do you know?
0

Hi there! Is IC50 for Nc1ccc(-c2ccc(F)cc2)nc1NC(=O)N1Cc2cncnc2C1 below 600 nM, do you know?
1
